Please respond with reported activity increase over dofetilide control, less the hit threshold for every item in the list.
- assayedSystem: Voltage-gated inwardly rectifying potassium channel KCNH2 (Homo sapiens) (UniProt Q12809)
- Sequence (Q12809 whole entry, looked up): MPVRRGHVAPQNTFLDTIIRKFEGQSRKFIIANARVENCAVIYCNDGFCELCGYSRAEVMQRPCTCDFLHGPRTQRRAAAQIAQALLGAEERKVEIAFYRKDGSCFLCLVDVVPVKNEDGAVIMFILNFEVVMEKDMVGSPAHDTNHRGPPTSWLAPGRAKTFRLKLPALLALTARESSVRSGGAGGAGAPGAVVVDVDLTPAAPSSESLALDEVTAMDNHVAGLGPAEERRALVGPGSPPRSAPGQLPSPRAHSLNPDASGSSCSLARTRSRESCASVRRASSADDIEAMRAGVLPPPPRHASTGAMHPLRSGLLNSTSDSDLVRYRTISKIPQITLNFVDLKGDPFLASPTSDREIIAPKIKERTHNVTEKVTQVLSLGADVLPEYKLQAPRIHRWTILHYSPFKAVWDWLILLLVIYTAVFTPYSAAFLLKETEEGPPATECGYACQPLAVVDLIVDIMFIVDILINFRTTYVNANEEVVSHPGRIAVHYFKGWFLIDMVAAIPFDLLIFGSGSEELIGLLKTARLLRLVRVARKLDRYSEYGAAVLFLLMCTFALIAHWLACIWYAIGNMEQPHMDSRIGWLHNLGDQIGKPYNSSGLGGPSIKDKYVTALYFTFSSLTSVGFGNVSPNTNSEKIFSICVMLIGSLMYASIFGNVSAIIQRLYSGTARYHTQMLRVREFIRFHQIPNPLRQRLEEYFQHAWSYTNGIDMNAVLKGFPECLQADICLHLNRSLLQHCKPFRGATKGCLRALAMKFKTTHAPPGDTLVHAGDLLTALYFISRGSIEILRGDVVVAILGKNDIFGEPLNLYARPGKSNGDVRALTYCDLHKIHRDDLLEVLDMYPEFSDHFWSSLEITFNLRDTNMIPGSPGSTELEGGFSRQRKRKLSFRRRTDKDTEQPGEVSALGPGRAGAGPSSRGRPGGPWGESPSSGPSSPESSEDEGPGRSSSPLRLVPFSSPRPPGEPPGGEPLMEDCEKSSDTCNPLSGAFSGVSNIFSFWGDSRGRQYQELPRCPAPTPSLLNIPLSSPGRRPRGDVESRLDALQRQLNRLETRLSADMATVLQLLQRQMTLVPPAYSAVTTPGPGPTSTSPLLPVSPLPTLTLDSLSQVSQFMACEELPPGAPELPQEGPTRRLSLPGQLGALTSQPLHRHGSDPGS
- assayComment: hERG protection against dofetilide inhibition, confirmation, cell-based, thallium flux, duplicate retest, dofetilide IC70 (AID 1835)
- details: hERG cell line, FluxOR thallium flux, dofetilide-blocked; at 10 µM; active compounds read high
About 750 (31%) of roughly 2,400 compounds were called active. Some of the results follow.
Give just the numeric value; % need not be written.

Given the compound Nc1cc(N)nc(SCc2cc(=O)oc3cc4c(cc23)CCC4)n1 , what is its reported activity increase over dofetilide control, less the hit threshold? -35

Record request: activity increase over dofetilide control, less the hit threshold value, item S=c1nc(Cc2ccc(Cl)cc2)[nH]c2ccccc12 90

Bench note: what activity increase over dofetilide control, less the hit threshold did Cc1cc(C)c(NC(=O)C2CC3CCC2C3)c(C)c1 (stereo unspecified) show? -5

Which activity increase over dofetilide control, less the hit threshold reading was recorded for the compound Cc1ccc([N+](=O)[O-])c2c1C(N1CC(C)OC(C)C1)C(C)(C)O2 (stereo unspecified) ? -24

Entry under review: Cc1ccc(OCc2ccoc2C(=O)O)cc1C . Reported activity increase over dofetilide control, less the hit threshold? 11

# activity increase over dofetilide control, less the hit threshold lookup, item C=CCn1c(O)c(N=NC(=S)Nc2ccc(OC)cc2)c2ccccc21 4

Any idea what its activity increase over dofetilide control, less the hit threshold is? The compound is O=c1c2ccc(Cl)cc2[nH]c(=S)n1CCC1=CCCCC1 42

Given the entry O=c1cc(O)c2ccccc2n1Cc1ccccc1Cl , report its measured activity increase over dofetilide control, less the hit threshold. -8

What does the record list as activity increase over dofetilide control, less the hit threshold for CCOc1ccccc1NC(=O)C(=O)CC(=O)c1cccc(OC)c1 ? 7

Query: activity increase over dofetilide control, less the hit threshold; subject: CCC(NS(=O)(=O)c1ccc(OC)cc1)C(=O)O (stereo unspecified) -13

Which activity increase over dofetilide control, less the hit threshold value belongs to CCCN1Cc2cccc(C(=O)NCc3cccs3)c2C1=O ? -21

I would be grateful if you could share the reported activity increase over dofetilide control, less the hit threshold for O=C(O)CCCCCNc1nc(=S)[nH]c2ccccc12 . -7

# lookup: activity increase over dofetilide control, less the hit threshold of CC(NC(=O)CCNC(=O)c1ccco1)c1ccc(F)cc1 (stereo unspecified) -5

Fill in: activity increase over dofetilide control, less the hit threshold of S=c1[nH]nc(-c2ccc(Cl)cc2)n1Cc1ccccc1 is ___ -13

Give the measured activity increase over dofetilide control, less the hit threshold of CN(CC(=O)Nc1ccc(OC(F)(F)F)cc1)S(=O)(=O)c1cnc[nH]1 . -9

Tell me the measured activity increase over dofetilide control, less the hit threshold of Cc1cc(C)c(-c2cc(NC(=O)COC(=O)c3ccc(NC(=O)CC#N)cc3)n(-c3ccccc3)n2)cc1C , please. -15

Name the recorded activity increase over dofetilide control, less the hit threshold for O=C(Nc1nnc(SCC(=O)N2CCCCC2)s1)C1CCCCC1 . -18

Requested read-out: activity increase over dofetilide control, less the hit threshold. Entry: Nc1nc(Br)c2c(F)cccc2c1-c1ccc(Cl)cc1 -6

State the recorded activity increase over dofetilide control, less the hit threshold for this entry: CCOc1ccc(NC(=O)CSc2nc3nc(C)cc(C)n3n2)cc1 -8

Entry under review: O=C(CCn1c(=S)[nH]c2cc3c(cc2c1=O)OCO3)NCc1ccc(Cl)cc1 . Reported activity increase over dofetilide control, less the hit threshold? -8

Name the reported activity increase over dofetilide control, less the hit threshold value associated with the compound CCOc1ccc(CCNC(=O)Nc2ccccc2C)cc1OCC -12

Would you mind telling me what activity increase over dofetilide control, less the hit threshold value was observed for CCCCCC(=O)NNC(=S)NC(=O)c1ccc([N+](=O)[O-])cc1 ? -24

Recorded activity increase over dofetilide control, less the hit threshold for Cc1nc(NCCc2ccc(S(N)(=O)=O)cc2)c2c(C)c(C)sc2n1 , please? 2

Given the compound Cc1ccc(-c2nc3c(Cl)cc(Cl)cc3c(=O)n2O)cc1 , what is its reported activity increase over dofetilide control, less the hit threshold? 83

Request the reported activity increase over dofetilide control, less the hit threshold associated with Cc1ccc(-c2nc3ccccc3c(=O)n2O)cc1 14

Quick check: activity increase over dofetilide control, less the hit threshold of O=C(O)Cc1sc(-c2ccc(Cl)cc2)nc1-c1ccccc1 ? -10

What activity increase over dofetilide control, less the hit threshold value was documented for this compound, O=c1[nH]c(SCc2cccc(Cl)c2)nc2ccccc12 ? -14

Name the recorded activity increase over dofetilide control, less the hit threshold for CCOc1ccc(NC(=O)C2C(C(=O)O)C3(Cl)C(Cl)=C(Cl)C2(Cl)C3(Cl)Cl)cc1 (stereo unspecified) . -8

Can you look up the measured activity increase over dofetilide control, less the hit threshold of Cc1ccc(C(C)NC(=S)NC2CCCCC2)cc1C (stereo unspecified) for me? -6

Field request: activity increase over dofetilide control, less the hit threshold | item: COCCCNC(=O)CC(NS(=O)(=O)c1ccc(F)cc1)c1ccc(OC)cc1 (stereo unspecified) -1

Need activity increase over dofetilide control, less the hit threshold of CCSc1nnc(NC(=O)CC(C)C)s1 , thanks. 3

Entry S=c1nc(COc2ccccc2)[nH]c2ccccc12 : reported activity increase over dofetilide control, less the hit threshold = ? 100

// activity increase over dofetilide control, less the hit threshold lookup, key: Cc1c(OC(C)C(=O)NCCN2CCOCC2)ccc2c3c(c(=O)oc12)CCC3 (stereo unspecified) 3

Please give the measured activity increase over dofetilide control, less the hit threshold for this compound: COc1cc(NC(=O)c2ccccc2)c(OC)cc1NC(=O)Cc1ccc(Br)cc1 12

Please give the measured activity increase over dofetilide control, less the hit threshold for this compound: O=C(O)c1cccc(C(=O)Nc2cccc(NC(=O)C3CCCO3)c2)c1 (stereo unspecified) -14

What value of activity increase over dofetilide control, less the hit threshold has been recorded for this entry: CCOc1ccc(NC(=S)NS(=O)(=O)c2cc(Br)ccc2OCC)cc1 37

Returns the measured activity increase over dofetilide control, less the hit threshold for the input compound. Input: CCc1ccccc1N(CC(=O)NC(C)c1ccccc1)S(C)(=O)=O (stereo unspecified) -15

GET /values?readout=activity increase over dofetilide control, less the hit threshold&item= Cc1ccc(-c2nc(CS(=O)(=O)CC(=O)NCCN3CCOCC3)c(C)o2)cc1 -13

What does the record list as activity increase over dofetilide control, less the hit threshold for Cc1nc(-c2cc(C#N)c(Sc3ccc(Cl)cc3Cl)nc2C)cs1 ? -4

Any idea what activity increase over dofetilide control, less the hit threshold was measured for O=C(Cc1ccccc1)Nn1c(-c2ccccc2)nc2ccccc2c1=O ? -15

Return reported activity increase over dofetilide control, less the hit threshold; argument: Nc1nc(O)c(N=Nc2ccc(S(N)(=O)=O)cc2)c(=O)[nH]1 6

Quick one: activity increase over dofetilide control, less the hit threshold for Cc1ccc(Cn2c(O)c(N=NC(=S)Nc3ccccc3F)c3ccccc32)cc1 ? -13

activity increase over dofetilide control, less the hit threshold lookup needed for CC1CCN(C(=S)NC(=O)c2cccc([N+](=O)[O-])c2)CC1 , thanks. 15

Can you look up the measured activity increase over dofetilide control, less the hit threshold of CCSc1nnc(NC(=O)Cn2cnc3c2c(=O)n(C)c(=O)n3C)s1 for me? -22

Return reported activity increase over dofetilide control, less the hit threshold; argument: CCC1CCCCN1C(=S)NC(=O)c1ccc([N+](=O)[O-])cc1 (stereo unspecified) 28

Quick one: activity increase over dofetilide control, less the hit threshold of O=c1c2cccnc2[nH]c(=S)n1CCC1=CCCCC1 ? -3

----------
- assayedSystem: Voltage-gated inwardly rectifying potassium channel KCNH2 (Homo sapiens) (UniProt Q12809)
- assayComment: hERG protection against dofetilide inhibition, confirmation, cell-based, thallium flux, duplicate retest, dofetilide IC70 (AID 1835)
- details: hERG cell line, FluxOR thallium flux, dofetilide-blocked; at 10 µM
About 750 (31%) of roughly 2,400 compounds were called active.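 How the source made its calls: active means median signal gain over dofetilide-blocked control wells reaching their mean plus 3 SD, so readout 1 at least 0; inactive means the rest.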 This is one part of the list.
Hello, when you answer, please use one of the following outcomes: active, inactive

Check the results log: what was the call for Cc1ccc(/C=N/NC(=O)c2cc(-c3ccncc3)nc3ccccc23)o1 ? inactive

// return assay outcome for Cn1cnnc1SCC(=O)NCc1ccccc1 inactive

Per the records of this test, what outcome belongs to CN(C)c1ccc(N=Nc2ccc(C(=O)O)cc2)cc1 ? inactive

Give the logged outcome of this assay for the following compound: COCCNC(=O)C1CC(=O)N(c2ccc(OC)cc2)C1c1ccc(OC)cc1 (configuration not stated) inactive

Hi team, can someone confirm the assay call for CC(O)C(NS(=O)(=O)c1ccc(Cl)cc1)C(=O)OCc1cc([N+](=O)[O-])cc2c1OCOC2 (configuration not stated) ? inactive

# lookup: test call for CCOc1nc(-c2ccccc2)ccc1-c1noc(COC)n1 inactive

Any idea what this test logged for CC(C)(C)c1csc(NC(=O)C2=COCCO2)n1 ? inactive

Per the assay record, what outcome was assigned to O=C1NC(=S)/C(=C\c2ccc(-c3ccccc3Cl)o2)S1 ? inactive

Identify the outcome logged in this assay for the compound shown: CN(C(=O)CSc1ncnc2sc(-c3ccccc3)cc12)C1CCS(=O)(=O)C1 (configuration not stated) active

Per the assay record, what outcome was assigned to CCOC(=O)c1sc2nc(C)nc(SCC(=O)N(C)C3CCS(=O)(=O)C3)c2c1C (configuration not stated) ? inactive

Hello, I am checking results. What call was entered for CCc1cccc(C)c1NC(=O)C1=C(C(=O)O)CCCC1 ? inactive

Recorded call for C=C(C)CSc1nnc2[nH]c(=O)cc(N)n12 ? inactive

Given O=C(NC(=S)NCCc1ccccc1)c1cccc(Cl)c1 , state the outcome it received in this test. active

How did this test come out for O=C(O)c1c2c(nc3ccccc13)/C(=C/c1cccc([N+](=O)[O-])c1)CCC2 ? inactive

Short answer needed: outcome of this test for Cc1nc(NC(=S)NC(=O)COc2ccc(Cl)cc2)ccc1Br ? inactive

Write down the call the test reported for this compound. Item: O=C(O)CC1S/C(=N/N=C/c2ccc(-c3ccccc3[N+](=O)[O-])o2)NC1=O (configuration not stated) inactive

So what was the verdict on O=C1C=C(NCCN2CCOCC2)C(=O)c2cnccc21 in this test? inactive

What was the test verdict on Cc1cc(=O)oc2cc(OC(C(=O)O)c3ccccc3)ccc12 (configuration not stated) ? inactive

Please let me know the test result on file for Cc1ccc(OCC(=O)NC(=S)Nc2ccc(Br)cn2)cc1 . active

How did this test come out for S=C(NCCc1ccccc1)N/N=C/c1c(Cl)cccc1Cl ? inactive

Name the outcome recorded for CSCC[C@H](NC(=O)Nc1ccc(C)cc1C)C(=O)O in the assay. inactive

# outcome recorded in this test, key = CCOC(=O)C1CCN(C(=O)COC(=O)c2nn(C)c(=O)c3ccccc23)CC1 inactive

Dear all, I need the recorded test outcome for Cc1ccc(/C=N/NC(=O)c2cc(C)oc2C)o1 , thank you. inactive

Outcome? S=c1[nH]nc(-c2ccccn2)n1/N=C/c1ccc(-c2ccccc2Br)o1 inactive

Recorded test outcome, item Cc1ccc(OCC(=O)NC(=S)Nc2ccc(Br)cn2)cc1C inactive

Dear all, I need the recorded test outcome for O=[N+]([O-])c1ccc(-c2ccc(/C=N/n3cnnc3)o2)c(Br)c1 , thank you. active

Recorded call for O=C(NC(=S)N1CCCCCC1)c1ccc(Cl)cc1Cl ? active

Would you mind telling me which call this test gave COc1ccc2nc(NC(=S)NC(=O)c3ccco3)sc2c1 ? active

What is the recorded call for this compound in the test? O=C(CC1CCCC1)Nc1ccc2c(c1)CCC2 inactive

I would be grateful if you could indicate the recorded call for CCC(=O)Nc1nnc(-c2ccccn2)o1 . inactive

Any idea what this test logged for O=C(O)CCSc1ncnc2sc(-c3ccccc3)cc12 ? active

Look up the recorded call for O=C(CCC(=O)Nc1ccccc1)NNC(=O)c1ccco1 in this test. inactive

Tell me the recorded outcome of this test for CCOC(=O)c1nnn(CC(=O)Nc2ccccc2OC)c1C(=O)OCC . inactive

Called result for CC1CCN(C(=S)NC(=O)c2ccc(C(C)(C)C)cc2)CC1 active

Check the results log: what was the call for O=C(/C=C/c1ccccc1)Nc1ccc(C(=O)N2CCCCC2)cc1 ? inactive

Tell me the recorded outcome of this test for O=C(NC(=S)NCc1ccc(-c2nc3ccccc3s2)cc1)c1ccco1 . inactive

Returns: the outcome recorded for CC1CN(S(=O)(=O)c2ccc(-c3nc4ccccc4s3)cc2)CC(C)O1 (configuration not stated) in this assay. active

Any idea what this test logged for Cc1onc(-c2ccccc2Cl)c1C(=O)NC(=S)Nc1ccc(C(C)C)cc1 ? inactive

What is the recorded call for this compound in the test? CCCCCCc1cc2cc(-c3nnc(-c4ccccc4)o3)c(=O)oc2cc1O inactive

Each compound tested received a call. Report the one for Cc1ccc(/C=N/NC(=O)c2cc3ccccc3cc2O)o1 . active

Record lookup: outcome of this test for O=C(N/N=C/c1ccc(-c2ccccc2)o1)c1ccccc1O ? inactive

Name the outcome recorded for COc1ccc(CC(=O)Nc2ccc(-c3noc(-c4ccccc4OC)n3)cc2)cc1 in the assay. inactive

Entry COc1ccccc1NC(=O)C(=O)NNC(=O)c1ccco1 : call = ? active

Called result for CC(C)(C)Cc1nnc(NC(=O)c2ccco2)s1 inactive

So what was the verdict on C/C(O)=C/c1nc2ccccc2[nH]c1=O in this test? inactive

Call for entry CC(C)(C)c1ccc(C(=O)NC(=S)N2CCCCCC2)cc1 : active

How was O=C(N/N=C/c1ccc(Sc2ccccn2)o1)c1cc2ccccc2cc1O classified in this test? active
